Biological target: FABP3 (Homo sapiens (Human))
Sequence (P05413 whole entry, species assumed): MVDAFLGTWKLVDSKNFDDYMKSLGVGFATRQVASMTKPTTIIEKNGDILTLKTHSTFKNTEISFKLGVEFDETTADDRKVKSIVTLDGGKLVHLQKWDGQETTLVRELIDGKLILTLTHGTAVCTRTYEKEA
pKd: −log10 of the molar value.
observable: pKd

INSERT INTO measurements (compound, val) VALUES
  ('CC(C)Oc1nc(NC(=O)CSCC(=O)O)c(Cl)cc1Cl [PD152]', 6.73),
  ('CC(C)Oc1nc(NC(=O)CSCC(=O)O)c(Cl)cc1C(F)(F)F [PD151]', 6.60);

====

Experiment: Tissue distribution in C57BL/6 male mice
Assay type: in vivo, C57BL/6 mice
Details: male, C57BL/6, mouse; Pancreas, mice, oral 10 mg/kg; read-out: Tissue/Plasma ratio (Kp)
observable: Kp

INSERT INTO assay_data (compound, val) VALUES
  ('CC(C)Oc1nc(NC(=O)CSCC(=O)O)c(Cl)cc1Cl [PD152]', 0.07);
